# assayExplanation: Equilibrium solubility, shake-flask method
# Type: physicochemical
# assayConditions: thermodynamic from solid; water, 37° C.; read-out: equilibrium solubility in water

smilesInput: CCCCCCCCCCCCCCCCCC(=O)N[C@@H](Cc1ccc(O)cc1)C(=O)O
solubility thermodynamic: < 1000 µg/mL

---

# assayExplanation: Equilibrium solubility, shake-flask method
# Type: physicochemical
# assayConditions: 37 °C, aqueous buffer, thermodynamic from solid; pH 7.0; read-out: Equilibrium solubility in buffer solution

compound: CCCCCCCCCCCCCCCCCC(=O)N[C@@H](Cc1ccc(O)cc1)C(=O)[O-].[K+] [NsTyr-2K, N-stearoyl tyrosine potassium salt]
solubility thermodynamic: 251 µg/mL

---

# assayExplanation: Equilibrium solubility, shake-flask method
# Type: physicochemical
# assayConditions: 37 °C, aqueous buffer, thermodynamic from solid; pH 5.0; read-out: Equilibrium solubility in buffer solution

compound: CCCCCCCCCCCCCCCCCC(=O)N[C@@H](Cc1ccc(O)cc1)C(=O)[O-].[K+] [NsTyr-2K, N-stearoyl tyrosine potassium salt]
solubility thermodynamic: 221 µg/mL

---

# assayExplanation: Apparent lipid-water distribution coefficient
# Assay type: physicochemical
# assayConditions: buffer pH 5.0; read-out: Apparent lipid-water distribution coefficient LogP

compound: CCCCCCCCCCCCCCCCCC(=O)N[C@@H](Cc1ccc(O)cc1)C(=O)[O-].[K+] [NsTyr-2K, N-stearoyl tyrosine potassium salt]
logP: 1.34

---

# assayExplanation: Equilibrium solubility, shake-flask method
# Format: physicochemical
# assayConditions: 37 °C, aqueous buffer, thermodynamic from solid; pH 4.0; read-out: Equilibrium solubility in buffer solution

molecule: CCCCCCCCCCCCCCCCCC(=O)N[C@@H](Cc1ccc(O)cc1)C(=O)[O-].[K+] [NsTyr-2K, N-stearoyl tyrosine potassium salt]
solubility thermodynamic / µg/mL: 188

---

# assayExplanation: Apparent lipid-water distribution coefficient
# Format: physicochemical
# assayConditions: buffer pH 7.4; read-out: Apparent lipid-water distribution coefficient LogP

compound: CCCCCCCCCCCCCCCCCC(=O)N[C@@H](Cc1ccc(O)cc1)C(=O)[O-].[K+] [NsTyr-2K, N-stearoyl tyrosine potassium salt]
logP: 1.22

---

# assayExplanation: Apparent lipid-water distribution coefficient
# Type: physicochemical
# assayConditions: buffer pH 2.0; read-out: Apparent lipid-water distribution coefficient LogP

compound: CCCCCCCCCCCCCCCCCC(=O)N[C@@H](Cc1ccc(O)cc1)C(=O)[O-].[K+] [NsTyr-2K, N-stearoyl tyrosine potassium salt]
logP: 1.88

---

# assayExplanation: Equilibrium solubility, shake-flask method
# Type: physicochemical
# assayConditions: 37 °C, aqueous buffer, thermodynamic from solid; pH 6.0; read-out: Equilibrium solubility in buffer solution
property: solubility thermodynamic (µg/mL)

compound: CCCCCCCCCCCCCCCCCC(=O)N[C@@H](Cc1ccc(O)cc1)C(=O)[O-].[K+] [NsTyr-2K, N-stearoyl tyrosine potassium salt]
experimentalResult: 243

---

# assayExplanation: Absorption kinetics after intragastric administration
# Type: in vivo
# assayConditions: both sexes, Sprague-Dawley (SD), rat, blood; SD rats, oral 200 mg/kg
property: MRT last (h)

compound: CCCCCCCCCCCCCCCCCC(=O)N[C@@H](Cc1ccc(O)cc1)C(=O)O
experimentalResult: 1.38
//
compound: CCCCCCCCCCCCCCCCCC(=O)N[C@@H](Cc1ccc(O)cc1)C(=O)[O-].[K+] [NsTyr-2K, N-stearoyl tyrosine potassium salt]
experimentalResult: 2.19
